Origin of the recorded values: ChEMBL document CHEMBL5523768

- test_details: Cmax in male Sprague-Dawley rat at 10 mg/kg, po measured upto 24 hrs by HPLC-MS analysis
- Format: ADME, organism-based
- condition_context: in vivo
quantity_name: Cmax (ng/mL)
Just the number please, in ng/mL, no unit attached.

Req: So what does the record say about Cmax for `CC1(N)CCN(C(=O)c2ccc(Sc3cccc(Cl)c3Cl)o2)CC1` ?
Resp: 41

* * *

- test_details: Cmax in male Sprague-Dawley rat at 1 mg/kg, iv measured upto 24 hrs by HPLC-MS analysis
- Assay type: ADME, organism-based
- condition_context: in vivo
quantity_name: Cmax (ng/mL)
I only need the number, in ng/mL, no unit after it.

Req: Requested field: Cmax. Item: `CC1(N)CCN(C(=O)c2ccc(Sc3cccc(Cl)c3Cl)o2)CC1`
Resp: 112
